Value source: patent US7534763B2

# assay_comment: Dog pharmacokinetic study (iv and sc, solution vehicles)
# Type: in vivo
# assay_conditions: male, beagle, plasma, 67 ug/kg; dog, intravenous 67 μg/kg, propylene glycol:phosphate buffer (50:50)
Where a SMILES comes first, the peptide text is derived from it. [ ]: non-standard residue; d: D form. Ala(6-(2-MePh)pyridin-3-yl) = Cc1ccccc1-c1ccc(C[C@H](N)C(=O)O)cn1; Bip(2'-Et-4'-OMe) = CCc1cc(OC)ccc1-c1ccc(C[C@H](N)C(=O)O)cc1; αMePhe(2-F) = C[C@](N)(Cc1ccccc1F)C(=O)O; Aib = CC(C)(N)C(=O)O

[
  {
    "molecule": "CCc1cc(OC)ccc1-c1ccc(C[C@H](NC(=O)[C@H](CC(=O)O)NC(=O)[C@H](CO)NC(=O)[C@@H](NC(=O)[C@](C)(Cc2ccccc2F)NC(=O)[C@@H](NC(=O)CNC(=O)[C@H](CCC(=O)O)NC(=O)C(C)(C)NC(=O)[C@@H](N)Cc2c[nH]cn2)[C@@H](C)O)[C@@H](C)O)C(=O)N[C@@H](Cc2ccc(-c3ccccc3C)nc2)C(N)=O)cc1 [SEQ ID NO: 9] (H-H[Aib]EGT[αMePhe(2-F)]TSD[Bip(2'-Et-4'-OMe)][Ala(6-(2-MePh)pyridin-3-yl)]-NH2)",
    "MRT, h": 3
  }
]
